Listed here: items and their measured EC50 cAMP, DiscoveRx.
ASSAY SYSTEM: T1, human VPAC2 receptor (human, UniProt P41587 24-438)
T1 sequence (looked up): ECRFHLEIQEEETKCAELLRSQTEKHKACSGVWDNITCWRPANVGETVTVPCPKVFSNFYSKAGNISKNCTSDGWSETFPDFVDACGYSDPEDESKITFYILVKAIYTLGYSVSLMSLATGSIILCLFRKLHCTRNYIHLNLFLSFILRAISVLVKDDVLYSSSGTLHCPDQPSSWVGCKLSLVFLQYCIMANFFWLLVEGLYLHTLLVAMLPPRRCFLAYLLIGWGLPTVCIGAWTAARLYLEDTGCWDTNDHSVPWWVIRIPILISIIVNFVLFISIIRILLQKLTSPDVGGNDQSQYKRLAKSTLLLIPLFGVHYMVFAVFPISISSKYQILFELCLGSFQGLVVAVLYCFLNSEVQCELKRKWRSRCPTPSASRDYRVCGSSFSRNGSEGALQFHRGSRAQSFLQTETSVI
EXPERIMENT: cell-based or functional assay
Where no end group is shown, it is not given here. The star is where a group is joined. Hexanoyl = CCCCCC(=O)*

Take a look at these entries with their results.
{"BINDER": "HSDAVFTDNYTRLRKQVAASKYLQSIKNKRYGGPSSGAPPPS [P21]", "VALUE OBSERVED": "6.87 nM"}
{"BINDER": "HPDAVFTDNYTRLRKQVAAKKYLQSIKNKRYGGPSSGAPPPS [P49]", "VALUE OBSERVED": "13.4 nM"}
{"BINDER": "Hexanoyl-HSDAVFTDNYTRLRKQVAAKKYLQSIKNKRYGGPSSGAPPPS (also called VPAC2-P31) [P31]", "VALUE OBSERVED": "0.11 nM"}
{"BINDER": "HSDAVFTDNYTRLRKQVAAKKYLQSIKNGRPSSGAPPPS [P92]", "VALUE OBSERVED": "8.2 nM"}

Assign EC50 cAMP, DiscoveRx to the following record: HSDAVFTDNYTRLRKQVAAKKYLQSIKNKRGGT [P7]
2.78 nM

Determine its reported EC50 cAMP, DiscoveRx: HSDAVFTDNYTRLRRQVAAKKYLQSIKNKRYGGPSSGAPPPS [P72]
1.79 nM

Origin of measurements: patent US20080026996A1
